Experiment: RT-PAMPA with MDAP∙CB8 fluorescent receptor and Avanti lipid
Details: RT-PAMPA; fast = sharp fluorescence drop in initial several minutes, slow = response on time scale of several hours
property name: permeation characteristics (fast or slow) from the permeation curves

# get_value(readout='permeation characteristics (fast or slow) from the permeation curves', item= Cc1c(OCC(F)(F)F)ccnc1C[S+]([O-])c1nc2ccccc2[nH]1 (stereo not drawn) )
slowly permeating

# get_value(readout='permeation characteristics (fast or slow) from the permeation curves', item= `c1ccc2[nH]c(-c3cscn3)nc2c1` )
Fast permeation

# get_value(readout='permeation characteristics (fast or slow) from the permeation curves', item= `c1ccc2[nH]ccc2c1` )
Fast permeation

# get_value(readout='permeation characteristics (fast or slow) from the permeation curves', item= `O=c1ccc2ccccc2o1` )
Fast permeation

# get_value(readout='permeation characteristics (fast or slow) from the permeation curves', item= `CCC(=O)Nc1ccc(Cl)c(Cl)c1` )
Fast permeation

Next:
# get_value(readout='permeation characteristics (fast or slow) from the permeation curves', item= `O=c1ccc2ccc(O)cc2o1` )
slowly permeating
